Numbers sourced from BindingDB's records for doi:10.1124/mol.62.4.947.

target_desc: Transient receptor potential cation channel subfamily V member 1 (Rattus norvegicus)
Sequence (O35433 whole entry): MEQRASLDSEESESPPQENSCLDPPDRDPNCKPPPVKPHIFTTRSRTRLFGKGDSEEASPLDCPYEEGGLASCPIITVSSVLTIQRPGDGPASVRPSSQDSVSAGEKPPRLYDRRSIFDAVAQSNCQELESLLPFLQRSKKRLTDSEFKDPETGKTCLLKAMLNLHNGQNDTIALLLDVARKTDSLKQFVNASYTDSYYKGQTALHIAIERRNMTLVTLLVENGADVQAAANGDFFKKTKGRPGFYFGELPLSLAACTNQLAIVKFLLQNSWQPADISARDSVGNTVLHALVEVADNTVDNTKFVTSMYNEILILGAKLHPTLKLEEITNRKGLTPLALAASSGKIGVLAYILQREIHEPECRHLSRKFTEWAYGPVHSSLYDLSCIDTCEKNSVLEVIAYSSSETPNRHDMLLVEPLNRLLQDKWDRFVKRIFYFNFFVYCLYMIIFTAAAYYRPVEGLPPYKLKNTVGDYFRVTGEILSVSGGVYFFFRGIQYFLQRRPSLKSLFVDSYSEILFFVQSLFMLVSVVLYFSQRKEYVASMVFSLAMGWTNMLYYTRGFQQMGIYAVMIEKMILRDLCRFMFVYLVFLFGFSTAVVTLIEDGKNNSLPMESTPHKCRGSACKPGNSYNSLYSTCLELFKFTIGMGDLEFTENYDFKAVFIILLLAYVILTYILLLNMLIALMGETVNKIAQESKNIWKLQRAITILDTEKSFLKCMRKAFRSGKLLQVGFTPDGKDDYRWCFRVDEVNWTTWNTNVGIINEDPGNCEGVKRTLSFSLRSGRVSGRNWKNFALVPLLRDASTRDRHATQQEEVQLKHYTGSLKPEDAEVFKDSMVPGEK
property_name: Ki (nM)
Express it in nM; write the number only.

Quick one: Ki for `CC(C)(C)c1ccc(CNC(=S)NCc2ccc(NS(C)(=O)=O)c(F)c2)cc1` ?
9.2
